system-name: M^Pro-eGFP ectopically expressed in 293T cells (Severe acute respiratory syndrome coronavirus 2)
measurement-notes: cell-based
pEC50: −log10 of the molar value.
property: pEC50

**Q:** Look up and state reported pEC50 for CC(C)[C@H](NC(=O)NC(C)(C)C)C(=O)N[C@@H](CC1CC1)C(=O)N[C@H](C=O)C[C@@H]1CCNC1=O [MPI39]
**A:** < 5.00
